Assay: Oral bioavailability in rat at 10 mg/kg, po
Assay type: ADME, organism-based
Settings: in vivo
Numbered stars: 1 amine (or outer) side, 2 acyl side, 3 side chain; on linkers, the order of the positions; unused ones are H or OH. Square brackets hold non-standard residues; d marks the D form. Peptide text beside a SMILES is read from it. * marks the point of attachment. Pro(3R,4S-CMe2) = CC1(C)[C@@H]2[C@@H](C(=O)O)NC[C@@H]21; X1 = O=C(C(=O)[*:2])C(CC1CC1)N[*:1]; Phg = N[C@H](C(=O)O)c1ccccc1; Tle = CC(C)(C)[C@H](N)C(=O)O; Boc = CC(C)(C)OC(=O)*
endpoint_label: bioavailability (%)
Report as a plain number; the unit % is understood.

Consider the molecule CN(C)C(=O)[C@@H](NC(=O)CNC(=O)C(=O)C(CC1CC1)NC(=O)[C@@H]1[C@@H]2[C@H](CN1C(=O)[C@@H](NC(=O)OC(C)(C)C)C(C)(C)C)C2(C)C)c1ccccc1 (stereo partly drawn) (Boc-[Tle][Pro(3R,4S-CMe2)][X1]G[Phg]-NMe2) and give its measured bioavailability. 4
